Study the reported pIC50 values for UniProtKB O60674 given below; they originate from different publications.
pIC50: −log10 of the molar value.

Reference set (4 entries):
compound="CC(Cl)C(=O)Nc1cccc(-c2cnc3ccccc3n2)c1 (centres unmarked)" result="< 4.30"
compound=C[C@H](CC(N)=O)n1c(=O)[nH]c2cnc(-c3cnc4ccc(F)cn34)nc21 result="6.00 to 7.00"
compound=CC(C)C[C@@H](C)n1cc(-c2nc(-c3cnn(C(CO)CO)c3)cn3nccc23)cn1 result="6.00 to 7.00"
compound=Cn1cc(-c2cc3nccn3c(-c3cnn(C4(CC#N)CN(C(=O)CC(F)(F)F)C4)c3)n2)cn1 result="7.00 to 8.00"

With those in mind, consider the next compound.
The recorded pIC50 for CCC(Cn1ccc2cnc(Nc3cnn(CC(=O)OCC(C)C)c3)nc21)C(C)C (centres unmarked) is > 7.00

---

pIC50: −log10 of the molar value.
Literature compilation of pIC50 measurements on Tyrosine-protein kinase JAK2 (Homo sapiens, UniProt O60674).

molecule=CC(C)COc1ccc2cc1COCCCCNC(=O)c1ccc(c([N+](=O)[O-])c1)-c1ccnc(n1)N2 result="5.00 to 6.00"
molecule=CN1CCC(N2C(=O)c3cc4nc(-c5c(N[C@@H](CO)Cc6ccccc6)cc[nH]c5=O)[nH]c4cc3C2=O)CC1 result="5.30 to 6.30"

# pIC50 measured on Tyrosine-protein kinase JAK2 (Homo sapiens, UniProt O60674) for item CCS(=O)(=O)N1CC(CC#N)(n2cc(-c3nc(Nc4cnn(C(C)=O)c4)nc4ccsc34)cn2)C1 = > 7.30

Lab note: molecule Cc1ccc(NC(=O)c2cccc(Cl)c2)cc1-c1ccc2c(c1)[nH]c1ncncc12 tested on Tyrosine-protein kinase JAK2 (Homo sapiens, UniProt O60674); recorded pIC50 was ≥ 6.30

---

Endpoint summary: IC50, system: UniProt O60674, multiple sources combined.

compound="Nc1cc2ccc1-c1ccnc(n1)Nc1ccc(OCC3CCc4ccccc43)c(c1)COCCCCNC2=O (centres unmarked)" assayed_system="UniProt O60674" recorded_endpoint=IC50 result="1000 to 10000 nM"
compound=N#CCC(=O)N1CCC[C@@H](Nc2c(-c3ccn(C(F)F)n3)cnc3[nH]ccc23)C1 assayed_system="UniProt O60674" recorded_endpoint=IC50 result="10 to 100 nM"
compound="CC1CCC(C(=O)NCC(F)(F)F)CN1N(C)c1ncnc2[nH]ccc12 (centres unmarked)" assayed_system="UniProt O60674" recorded_endpoint=IC50 result="> 1000 nM"

Field IC50 (system: UniProt O60674) for entry N#Cc1cccc(S(=O)(=O)N[C@H]2C[C@@H](Nc3c(-c4nnco4)cnc4[nH]ccc34)C2)c1 = ≤ 10 nM

Value sought: IC50, system UniProt O60674, item COC(=O)c1ccc(NC(=O)N2CCC(N3CC(CC#N)(n4cc(-c5ncnc6[nH]ccc56)cn4)C3)CC2)c(F)c1 . Result: 10 to 50 nM

Lab note: compound CCC(CC)n1cc(-c2nc(-c3cnn(C4CN(C(=O)C5CC5)C4)c3)cn3nccc23)cn1 tested on UniProt O60674; recorded IC50 was 10 to 100 nM

For the compound C[C@H](O)C(=O)N1CC[C@H](Oc2ccc(-c3ncnc(Nc4ccc(N5CCNCC5)cc4)n3)cc2C#N)[C@H](F)C1 , the measured IC50 on UniProt O60674 was 358 nM

// assay UniProt O60674, entry N#Cc1cc(-c2ncnc(Nc3ccc(N4CCN(C5COC5)CC4)cc3)n2)ccc1OC1CCCCC1 , IC50 value = 980 nM

Fill in: UniProt O60674 IC50 for Cc1ccc(NC(=O)c2cccc(F)c2)cc1-c1ccc2[nH]c3ncncc3c2c1 = > 1000 nM

For CCC(=O)c1cnc(Nc2ccc(CN3CC[C@@H](F)C3)cn2)cc1Nc1cccc(-c2ncn(C)n2)c1OC on UniProt O60674, measured IC50 was ≥ 500 nM

Entry CCOC(=O)N1CCN(Cc2cc(NC(=O)c3ccc(C)c(-c4ccc5nc(NC(=O)C6CC6)cn5n4)c3)cc(C(F)(F)F)c2)CC1 under UniProt O60674 had IC50 of 3180 nM

I looked up Cc1ccc(NC(=O)c2cc(N3CCCC(O)C3)cc(C(F)(F)F)c2)cc1-c1ccc2c(c1)[nH]c1ncncc12 (centres unmarked) and its IC50 for UniProt O60674 was ≤ 500 nM

For N#CCC1(n2cc(-c3ccnc4[nH]ccc34)cn2)CN(C2CCN(C(=O)Nc3ccccc3Cl)CC2)C1 on UniProt O60674, measured IC50 was 10 to 50 nM

Fill in: UniProt O60674 IC50 for CCN1CCCC1CNC(=O)c1ccc(-c2cnc3ccc(NCc4cc(F)ccc4F)nn23)cc1 (centres unmarked) = 11 nM

The measured IC50 that N#CCC1(n2cc(-c3ncnc4[nH]ccc34)cn2)CN(C2CCN(C(=O)Nc3ccccc3F)CC2)C1 showed for UniProt O60674 is 10 to 50 nM

// returns IC50 for Cn1cc(-c2cc3nccn3c(-c3cnn(C(CC#N)c4ccncc4)c3)n2)cn1 (centres unmarked) with UniProt O60674; value = 10 to 100 nM

Tested system UniProt O60674; IC50 recorded for C[C@H]1CN(C2COC2)CCN1c1ccc(Nc2ncnc(-c3ccc(O[C@H]4CCN(C(=O)c5nnc[nH]5)CC4(F)F)c(C#N)c3)n2)cc1 was 42 nM

Param item: CCC(=O)c1cnc(Nc2ccc(CN(C)C)cn2)cc1Nc1cc(F)cc(-c2ncn(C)n2)c1OC ; param system: UniProt O60674; output IC50: ≥ 500 nM

Field IC50 (system: UniProt O60674) for entry N#Cc1cc(-c2ncnc(Nc3ccc(N4CCN(C5COC5)CC4)cc3)n2)ccc1N1CC2(CCO2)C1 = 354 nM

The measured IC50 that CSCCn1cc(-c2nc(-c3cnn(C)c3)cc3nccn23)cn1 showed for UniProt O60674 is 10 to 100 nM
